target: Protein farnesyltransferase (Mus musculus, UniProt Q61239+Q8K2I1); test: Inhibition of H-Ras farnesylation expressed in mouse NIH3T3 cells; type: functional, cell-based
PARAMETER MEASURED: IC50

* Cn1cnc(S(=O)(=O)N(CCN(Cc2cncn2C)c2ccc(C#N)cc2)CC(=O)NC(C)(C)C)c1 | > 10 µM
* Cn1cnc(S(=O)(=O)N(CCN(Cc2cncn2C)c2ccc(C#N)cc2)CC2CC2)c1 | > 10 µM
* Cn1cnc(S(=O)(=O)N(CCN(Cc2cncn2C)c2ccc(C#N)cc2)Cc2ccncc2)c1 | > 10 µM
* Cn1cnc(S(=O)(=O)N(CCN(Cc2cnc[nH]2)c2ccccc2)Cc2ccccc2)c1 | > 10 µM

* * *

target: Protein farnesyltransferase (Homo sapiens, UniProt P49354+P49356); assay: Inhibition of human farnesyltransferase assessed as incorporation of [3H]FPP into H-Ras-CVLS
pIC50: −log10 of the molar value.
PARAMETER MEASURED: pIC50

• Cn1cnc(S(=O)(=O)N(CCN(Cc2cncn2C)c2ccc(C#N)cc2)Cc2ccsc2)c1 = 7.17
• Cn1cnc(S(=O)(=O)N(CCN(Cc2cncn2C)c2ccc(C#N)cc2)Cc2ccco2)c1 = 6.06
• Cn1cnc(S(=O)(=O)N(CCN(Cc2cncn2C)c2ccc(C#N)cc2F)CC2CCN(c3ncccn3)CC2)c1 = 7.19
• C=C(C)CN(CCN(Cc1cncn1C)c1ccc(C#N)cc1)S(=O)(=O)c1cn(C)cn1 = 6.94

* * *

Below is a list of entries, each paired with its recorded pIC50 value.
target: Geranylgeranyl transferase type I (Homo sapiens, UniProt P49354+P53609); test: Inhibition of human geranylgeranyltransferase-1 assessed as incorporation of [3H]GGPP into H-Ras-CVLL
pIC50: −log10 of the molar value.
PARAMETER MEASURED: pIC50

- Cc1ccc(CN(CCN(Cc2cncn2C)c2ccc(C#N)cc2)S(=O)(=O)c2cn(C)cn2)cc1: 6.24
- Cn1cnc(S(=O)(=O)N(CCN(Cc2cncn2C)c2ccc(C#N)cc2)CC(=O)NC(C)(C)C)c1: < 5.00
- Cn1cnc(S(=O)(=O)N(CCN(Cc2cncn2C)c2ccc(C#N)cn2)CC2CCN(c3ncccn3)CC2)c1: < 5.00

* * *

biological target: Geranylgeranyl transferase type I (Homo sapiens, UniProt P49354+P53609); test: Inhibition of human geranylgeranyltransferase-1 assessed as incorporation of [3H]GGPP into H-Ras-CVLL
PARAMETER MEASURED: IC50 (nM)

- Cc1ccccc1CN(CCN(Cc1cncn1C)c1ccc(C#N)cc1)S(=O)(=O)c1cn(C)cn1: 780
- Cn1cnc(S(=O)(=O)N(CCN(Cc2cncn2C)c2ccc(C#N)cc2)Cc2cccc(-c3ccccc3)c2)c1: 550
